Biological target: UniProtKB Q16769
Sequence (Q16769 29-361): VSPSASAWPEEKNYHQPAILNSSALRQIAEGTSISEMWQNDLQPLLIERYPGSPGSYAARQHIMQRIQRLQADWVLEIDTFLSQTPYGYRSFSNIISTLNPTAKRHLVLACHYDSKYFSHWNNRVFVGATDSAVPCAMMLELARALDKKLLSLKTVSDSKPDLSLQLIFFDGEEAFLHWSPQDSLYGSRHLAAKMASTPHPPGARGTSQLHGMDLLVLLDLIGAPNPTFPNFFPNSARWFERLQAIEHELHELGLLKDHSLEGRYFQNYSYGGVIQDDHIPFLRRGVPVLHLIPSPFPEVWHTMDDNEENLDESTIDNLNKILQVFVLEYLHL
Assay: Inhibitor assay for glutaminyl cyclase activity (fluorometric, H-Gln-βNA / H-Gln-AMC)
Assay type: biochemical
Details: read-out: IC50
Experimental: All measurements were performed with a BioAssay Reader HTS-7000Plus for microplates (Perkin Elmer) at 30° C. QC activity was evaluated fluorometrically using H-Gln-βNA. […] QC activity was determined from a standard curve of β-naphthylamine under assay conditions. […] In a second fluorometric assay, QC activity was determined using H-Gln-AMC as substrate. Reactions were carried out at 30° C. utilizing the NOVOStar reader for microplates (BMG labtechnologies). […]
QUANTITY_MEASURED: IC50 (nM)

Examples from the recorded data:
>  <COMPOUND>
O=C1C(O)=C(c2ccccc2)C(c2ccccn2)N1CCCn1ccnc1 (centres unmarked) [Compound 101]

>  <UNITS>
nM

>  <ASSAY_RESULT>
400

$$$$
>  <COMPOUND>
O=C1C(O)=C(c2c[nH]c3ccccc23)C(C(O)CO)N1CCCn1ccnc1 (centres unmarked) [Compound 117]

>  <UNITS>
nM

>  <ASSAY_RESULT>
400

$$$$
>  <COMPOUND>
CCC(C)C1C(c2ccccc2)=C(O)C(=O)N1CCCn1ccnc1 (centres unmarked) [Compound 79]

>  <UNITS>
nM

>  <ASSAY_RESULT>
400

$$$$
>  <COMPOUND>
CCCCCC1=C(O)C(=O)N(CCCn2ccnc2)C1c1c(O)ccc2ccccc12 (centres unmarked) [Compound 207]

>  <UNITS>
nM

>  <ASSAY_RESULT>
3100

$$$$

I = O=C1C(O)=C(c2ccc(O)cc2)C(c2cccc3cccnc23)N1c1ccc2[nH]cnc2c1 (centres unmarked) [Compound 364]
II = O=C1C(O)=C(c2ccc(O)cc2)C(c2coc3ccccc3c2=O)N1c1ccc2[nH]cnc2c1 (centres unmarked) [Compound 286]
III = CCC1=C(O)C(=O)N(CCCn2ccnc2)C1C1CCC=CO1 (centres unmarked) [Compound 237]
IV = O=C(C1=C(O)C(=O)N(c2ccc3[nH]cnc3c2)C1C1CCOC1)C1CC1 (centres unmarked) [Compound 317]
Q) Returns the items ordered by IC50, from maximum to minimum. List the labels according to the requested ordering.
A) IV, I, II, III

This collection of values is drawn from patent US8278345B2.
